Test system: A498 renal
protocol: NCI tumour cell line growth inhibition, 48 h
measured-attribute: TGI

# compound, TGI
rows = [
    ("CC1=NN(c2ccccc2Cl)C2(C1)SCC(=O)N2c1nc2ccccc2s1 (stereo unspecified)", "> 100 µM"),
    ("Nc1cc2c3c(cccc3c1)C(=O)N(CCN1CCN(CCN3C(=O)c4cccc5cc(N)cc(c45)C3=O)CC1)C2=O", "> 100 µM"),
]

Each compound below has a reported value. Please supply its TGI.
1. Cn1cccc1C1CC(=O)N(CCC[Se]C#N)C1=O (stereo unspecified)
2. CC[n+]1c(/C=C/c2ccc(N(CCCl)CCCl)cc2)ccc2cc(Br)ccc21
3. Nc1nc(Cl)cc(NCC2(CO)CC(O)C2)n1 (stereo unspecified)
4. Cc1c(/C=N\NC(=S)N(C)CCN(C)C(=S)N/N=C\c2c(C)n(C)n(-c3ccccc3)c2=O)c(=O)n(-c2ccccc2)n1C

Response:
["2.78 µM", "6900 µM", "> 100 µM", "> 100 µM"]

###

System: LXFL 529 NSCLC
protocol: NCI tumour cell line growth inhibition, 48 h
measured-attribute: TGI

// worked examples, TGI included
# molecule, measured-attribute, result
rows = [
    ("CC(=O)OCC1OC(n2cnc3c(I)nc(I)nc32)C(OC(C)=O)C1OC(C)=O (configuration not stated)", "TGI", "26.1 µM"),
    ("CC(C)c1cccc(C(C)C)c1NC(=S)Nc1ccccc1", "TGI", "> 100 µM"),
    ("Nc1cc2c3c(cccc3c1)C(=O)N(CCN1CCN(CCN3C(=O)c4cccc5cc(N)cc(c45)C3=O)CC1)C2=O", "TGI", "> 100 µM"),
]

Required: TGI, one value per molecule below.
1. COc1ccc(C2C(Cl)C(=O)N2NC(=O)c2ccc(NC(C)=O)cc2)cc1OC (configuration not stated)
2. COc1cc(-c2[nH]ncc2CCCC(=O)Nc2ccccc2[N+](=O)[O-])ccc1O

Response:
["> 100 µM", "> 100 µM"]

Hey, can you go through the list below and give me TGI for every item?
1. Nc1ncn([C@@H]2C=C(CO)C(O)C2O)c(=O)n1 (some centres not stated)
2. COc1cc(C2c3cc4c(cc3[C@@H](OCCN)[C@H]3COC(=O)C23)OCO4)cc(OC)c1O (some centres not stated)

Response:
1. > 100 µM
2. 7.75 µM

###

System: OVCAR-3 ovarian
protocol: NCI tumour cell line growth inhibition, 48 h
Where a SMILES comes first, the peptide text is derived from it. The star is where a group is joined. Cbz = O=C(OCc1ccccc1)*; Boc = CC(C)(C)OC(=O)*; OBn = c1ccc(CO*)cc1
Exercise: state measured TGI for each of the molecules provided.

# molecule, result
measured = [
    ("Oc1ccc(-c2nc(-c3ccc(F)cc3)c(-c3ccncc3)[nH]2)cc1", "86.9 µM"),
    ("c1ncc(C23C4C5C6C4C2C6C53)[nH]1 (stereo not given)", "> 100 µM"),
    ("O=C1c2ccccc2-c2ccc(N(Cc3ccc(Br)cc3)Cc3ccc(Br)cc3)cc21", "> 100 µM"),
    ("COC(=O)CC(CC(=O)C(=O)OC)C(=O)OC (stereo not given)", "> 100 µM"),
    ("COC(=O)C(CCCCNC(=O)OCc1ccccc1)NC(=O)C(CCC(=O)OCc1ccccc1)NC(=O)OC(C)(C)C (stereo not given) (Boc-Glu(OBn)-Lys(Cbz)-OMe; configuration not given here)", "> 100 µM"),
]

Go through the items and report each one's TGI.
1. O=C1C(c2c(O)n(-c3ccccc3)c3ccccc23)=Nc2ccccc21
2. Cn1cccc1C1CC(=O)N(CCC[Se]C#N)C1=O (stereo not given)
3. O=c1[nH]nc(Cc2ccc(Cl)cc2)n1Nc1ccccc1
4. Cc1c(/C=N\NC(=S)N(C)CCN(C)C(=S)N/N=C\c2c(C)n(C)n(-c3ccccc3)c2=O)c(=O)n(-c2ccccc2)n1C

Response:
1. > 100 µM
2. 3.99 µM
3. > 100 µM
4. > 100 µM

###

Tested on: COLO 205 colon
protocol: NCI tumour cell line growth inhibition, 48 h
measured-attribute: TGI (µM)
One number for each entry, in µM.

# molecule, target-or-system, TGI (µM)
records = [
    ("CC1(C)CC[C@]2(C(=O)O)CCC3(C)C(=CCC4[C@@]5(C)CC[C@H](OC6OCC(O)C(O)C6OC6OC(CO)C(O)C(O)C6O)C(C)(C)C5CC[C@]43C)C2C1 (stereo not given in full)", "COLO 205 colon", 3.49),
]

Request: Hi! What's the reported TGI for CCN1CCC(O)(c2ccccc2)C(C(=O)c2ccccc2)C1 (stereo not given) on COLO 205 colon?
Response: 53.1

###

Test system: MDA-MB-435
protocol: NCI tumour cell line growth inhibition, 48 h
measured-attribute: TGI (µM)
Numbers only, in µM.

# compound, TGI, µM
measured = [
    ("CCOC(=O)c1c(C)n(-c2ccc(C)cc2)c2c1cc(O)c1[nH]c3c(c12)CCCC3", 62.2),
    ("C=C1C(=O)OC2C3C(=C)[C@@H](OC(C)=O)CC3C(C)=CC(OC(=O)C(C)(O)C(C)OC(C)=O)[C@@H]12 (stereo partly drawn)", 28.3),
    ("CCC1c2[nH]c3ccccc3c2C[C@H]2C(=O)NC(Cc3ccccc3)C(=O)N12 (stereo partly drawn)", 43.8),
]

Dear colleague, could you send me TGI for each of the items below? Thanks.
1. COC(=O)c1c(OC(C)=O)ccc2c1c1c(n2Cc2ccccc2)C(=O)c2ccccc2C1=O
2. O=S(=O)(Nc1ccc2ccc3cccc4ccc1c2c34)c1ccccc1
3. NC(=NCc1ccccc1)N/N=C\c1ccnc2ccccc12
4. COc1cc([C@@H]2c3cc4c(cc3[C@@H](N=Cc3ccc(C(=O)O[C@H]5C[C@H]6OC[C@@]6(OC(C)=O)[C@H]6[C@H](OC(=O)c7ccccc7)[C@]7(O)C[C@H](OC(=O)[C@H](OC(=O)c8ccc(C=N[C@@H]9c%10cc%11c(cc%10[C@@H](c%10cc(OC)c(O)c(OC)c%10)[C@H]%10C(=O)OC[C@@H]%109)OCO%11)cc8)[C@@H](NC(=O)c8ccccc8)c8ccccc8)C(C)=C([C@@H](OC(C)=O)C(=O)[C@]56C)C7(C)C)cc3)C3COC(=O)C32)OCO4)cc(C)c1O (stereo partly drawn)
5. C/C=C(\C)C(=O)O[C@@H]1C=CC(=O)O[C@H]1COC(=O)[C@H](C)O
6. NCCCNCCCNc1nc2ccccc2c2[nH]c3ccccc3c12

Response:
1. 35.8
2. 24.4
3. 23.9
4. 9.32
5. 71.6
6. 2.08

###

Provide the recorded TGI for the entries that follow.
Test system: UACC-62 melanoma
protocol: NCI tumour cell line growth inhibition, 48 h
Where a SMILES comes first, the peptide text is derived from it. The star is where a group is joined. Cbz = O=C(OCc1ccccc1)*; Boc = CC(C)(C)OC(=O)*; OBn = c1ccc(CO*)cc1

Example compounds with recorded TGI:
# compound, result
data = [
    ("CC1(C)CC(C2CC(C)(C)CC(C)(C)[C@H]2O)[C@@H](O)C(C)(C)C1 (stereo partly drawn)", "> 100 µM"),
    ("CC(C)(C)OC(=O)N1CCC[C@H]1CSC[C@@H]1CCCN1C(=O)OC(C)(C)C", "57.2 µM"),
    ("C=CCSC1=N/C(=C\\c2ccco2)C(=O)N1CC=C", "> 100 µM"),
    ("CC1(c2nc3ccccc3[nH]2)CCC(CO)C(C)(C)O1 (stereo not drawn)", "> 100 µM"),
    ("O=c1[nH]nc(Cc2ccc(Cl)cc2)n1Nc1ccccc1", "> 100 µM"),
    ("CCN(CC)CCSc1nc2c([N+](=O)[O-])cccc2[nH]1", "> 100 µM"),
    ("C/C(O)=C/c1nc2sc(C)c(C)c2c(=O)s1", "> 100 µM"),
    ("COc1cccc(C2C3=C(COC3=O)N(CCO)c3cc4c(cc32)CCC4)c1 (stereo not drawn)", "> 50 µM"),
    ("COC1(CCO)CC=CCC1(CCO)OC (stereo not drawn)", "> 100 µM"),
    ("Nc1nccc(C#Cc2cncnc2Nc2ccc(OCc3cccc(F)c3)c(Cl)c2)n1", "7.68 µM"),
]

The following compounds each have a reported value; give each one's TGI.
1. C/C=C(\C)C(=O)O[C@@H]1C=CC(=O)O[C@H]1COC(=O)[C@H](C)O
2. O=C(c1no[n+]([O-])c1C(=O)c1csc2ccccc12)c1csc2ccccc12
3. CCOC(=O)c1c(C)n(-c2ccc(C)cc2)c2c1cc(O)c1[nH]c3c(c12)CCCC3
4. COC(=O)C(CCCCNC(=O)OCc1ccccc1)NC(=O)C(CCC(=O)OCc1ccccc1)NC(=O)OC(C)(C)C (stereo not drawn) (Boc-Glu(OBn)-Lys(Cbz)-OMe; configuration not given here)
5. CCC1c2[nH]c3ccccc3c2C[C@H]2C(=O)NC(Cc3ccccc3)C(=O)N12 (stereo partly drawn)
6. COc1cc(-c2[nH]ncc2CCCC(=O)Nc2ccccc2[N+](=O)[O-])ccc1O

Response:
1: 25.5 µM; 2: 25.7 µM; 3: 46.7 µM; 4: > 100 µM; 5: 38.8 µM; 6: > 100 µM

I have 2 compounds here; please give me TGI for each one.
1. CCCCCNC(=O)C1C(=O)N(CCCCC)C(=O)/C1=N\N (stereo not drawn)
2. COc1ccc(-c2c(C(=O)Nc3ccccc3)c(-c3ccccc3)n(C3OC(CO)C(O)C(O)C3O)c(=S)c2C#N)cc1 (stereo not drawn)

Response:
["> 100 µM", "> 100 µM"]
